// provenance: ChEMBL document CHEMBL5724696

# System: TERT-RPE1
# measurement-description: Here: values are normalized to the negative (DMSO; defined as 0% autophagy induction) and positive (250nM Torin1; mTOR inhibitor; defined as maximal inducer of autophagy = 100%) control compounds and represented as % of autophagy induction. […] The impact of autophagy induction on cells is complex and depends on the affected target. As such, the magnitude of a phenotype may not be equally mirrored in the %-value of autophagy induction and vice versa. The dynamics of the induction may indicate the mode of activation: e.g. activation via phosphorylation or a signaling cascade may occur fast, while activation via transcription factors may take considerably longer. […] Of note, treatment concentrations may be sub-optimal for specific compounds, leading to false negative annotations.
# Assay type: functional, Homo sapiens
# settings: Compound Concentration 0.5 uM, Timepoint 60 hours, Culturing Media DMEM/F12 (1:1), 1 % Penicillin/Streptomycin, 10% Fetal bovin serum Add-On: No, Screening Media Control DMEM/F12 (1:1), Screening Media Samples DMEM/F12 (1:1)
readout-kind: autophagy induction (%)
The response must be a number in % with no trailing unit.

Lookup: autophagy induction / TERT-RPE1 / O=C(Nc1ccc(Cl)cc1)Nc1cccc(-c2cccc(N3CCCC3)n2)c1 11.3473

TERT-RPE1 / autophagy induction / CNc1nc(NCc2ccc(NS(C)(=O)=O)cc2Cl)cc(-c2ccccn2)n1 : value? -4.377

autophagy induction of COc1ccc(C2(O)OC(=O)C(c3ccc4c(c3)OCO4)=C2Cc2cc(OC)c(OC)c(OC)c2)cc1 (stereo not drawn) on TERT-RPE1? 6.352
